// data source = patent US12497460B2

Test system: HMM-mfMSR1 (monkey MSR1 extracellular domain)
Sequence (as listed by the source): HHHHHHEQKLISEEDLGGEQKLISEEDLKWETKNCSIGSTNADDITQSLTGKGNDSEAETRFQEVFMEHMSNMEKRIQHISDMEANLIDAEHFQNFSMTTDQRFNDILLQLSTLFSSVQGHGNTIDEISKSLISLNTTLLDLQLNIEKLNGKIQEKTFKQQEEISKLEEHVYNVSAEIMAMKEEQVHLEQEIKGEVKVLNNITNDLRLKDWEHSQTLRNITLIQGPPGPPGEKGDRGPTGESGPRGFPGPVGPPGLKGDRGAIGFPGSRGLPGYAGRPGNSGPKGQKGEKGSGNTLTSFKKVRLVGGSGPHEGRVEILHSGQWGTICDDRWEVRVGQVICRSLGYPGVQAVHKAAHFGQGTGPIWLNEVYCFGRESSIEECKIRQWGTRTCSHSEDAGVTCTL
testDescription: Biacore surface plasmon resonance binding kinetics of anti-MSR1 mAbs, antibody-capture format
conditionNotes: 37° C.; analyte HMM-mfMSR1; antibody-capture format; NB = no binding observed
readoutLabel: ka (M⁻¹ s⁻¹)

molecule	readoutLabel	outputUnit	reportedMeasurement
H1H27734P-N297Q: one of "Twelve anti-MSR1 antibodies"; "made with an N297Q single point mutation in human Fcγ portion" (antibody, V domains shown) VH: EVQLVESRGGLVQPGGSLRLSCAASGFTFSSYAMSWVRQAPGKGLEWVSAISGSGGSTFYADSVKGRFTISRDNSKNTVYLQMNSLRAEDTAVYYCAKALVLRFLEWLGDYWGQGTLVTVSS VL: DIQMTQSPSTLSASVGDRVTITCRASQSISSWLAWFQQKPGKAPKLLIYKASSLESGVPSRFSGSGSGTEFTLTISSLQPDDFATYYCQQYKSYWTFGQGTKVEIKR	ka	M⁻¹ s⁻¹	949000
H1H21227N-N297Q: "modified versions of 21227N (H1H21227N-N297Q and H1H21227N-N297D)"; anti-MSR1 antibody "with a N297Q single point mutation" (antibody, V domains shown) VH: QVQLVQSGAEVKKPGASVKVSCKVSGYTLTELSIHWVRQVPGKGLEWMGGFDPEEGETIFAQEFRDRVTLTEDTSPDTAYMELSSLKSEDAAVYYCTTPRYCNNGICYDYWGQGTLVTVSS VL: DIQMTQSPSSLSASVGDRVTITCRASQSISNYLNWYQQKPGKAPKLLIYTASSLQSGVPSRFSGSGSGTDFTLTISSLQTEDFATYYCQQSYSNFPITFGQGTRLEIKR	ka	M⁻¹ s⁻¹	2.74e+06
H1H27747P-N297Q (antibody, V domains shown) VH: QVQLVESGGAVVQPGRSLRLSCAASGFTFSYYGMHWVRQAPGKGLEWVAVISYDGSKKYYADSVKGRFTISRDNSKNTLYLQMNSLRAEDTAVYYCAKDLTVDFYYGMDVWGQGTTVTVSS VL: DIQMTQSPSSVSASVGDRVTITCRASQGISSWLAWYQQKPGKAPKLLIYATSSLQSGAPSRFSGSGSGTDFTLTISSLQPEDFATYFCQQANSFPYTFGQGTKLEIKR	ka	M⁻¹ s⁻¹	657000
